# test-summary: Solubility of deucravacitinib in water
# Assay type: physicochemical
test-readout: solubility

Given [2H]C([2H])([2H])NC(=O)c1nnc(NC(=O)C2CC2)cc1Nc1cccc(-c2ncn(C)n2)c1OC , state its recorded solubility.
~9 µg/mL
